These data points were gathered from patent US10633394B2.

- System: NCI-N87
- METHOD_DESCRIPTION: Cell growth inhibition assay (CellTiter-Glo), stomach cancer cell line NCI-N87
- Assay type: cell-based
- TEST_CONDITIONS: Homo sapiens; NCI-N87 cells, 96 hours
PARAMETER_MEASURED: IC50 (µM)
Kindly provide the numeric value in µM only, without the unit symbol.

COMPOUND: CS(=O)(=O)C1CCOc2cc3sc(C(=O)Nc4cc(Cl)nc(Oc5cccc(OC(F)(F)F)c5)c4)cc3cc21 (centres unmarked) [Example 29]
PARAMETER_MEASURED: IC50
QUANTITATIVE_READOUT: 0.0046
--
COMPOUND: CS(=O)(=O)C1CCCOc2cc3sc(C(=O)Nc4cc(Cl)nc(Oc5ccc(Cl)cc5)c4)cc3cc21 (centres unmarked) [Example 9]
PARAMETER_MEASURED: IC50
QUANTITATIVE_READOUT: 0.067
--
COMPOUND: Cc1cccc(Oc2cc(NC(=O)c3cc4cc5c(cc4s3)OCCC5S(C)(=O)=O)cc(Cl)n2)c1 (centres unmarked) [Example 33]
PARAMETER_MEASURED: IC50
QUANTITATIVE_READOUT: 0.024

Inquiry: Return reported IC50; argument: CS(=O)(=O)C1CCOc2cc3sc(C(=O)Nc4cc(Cl)nc(Oc5ccc(Cl)c(F)c5)c4)cc3cc21 (centres unmarked) [Example 19]
Reply text: 0.0061

Inquiry: Now consider CS(=O)(=O)N1CCCc2cc3sc(C(=O)Nc4cc(Cl)nc(Oc5ccc(Cl)cc5)c4)cc3cc21 [Example 6] .
Reply text: 0.0055
